System: c-Src SH2
Experiment summary: SH2 binding enrichment of the phosphorylated peptide, bacterial display (enrichment ratio); higher = better substrate or ligand; peptides without Tyr show the background
Readout name: SH2 binding enrichment
Respond with the number and no other words.

[[record]]
sequence_string = "QTPVLYAMLDH [MPZ_Y220]"
readout_number = 0.922


Please turn your attention to the following entry.
Challenge: Give reported SH2 binding enrichment value for YETDYYQKGGK [INSR_Y1190_R1191Q]
Response given: 1.1

====

System: Jak2 (UniProt O60674)
Sequence (O60674 whole entry, looked up): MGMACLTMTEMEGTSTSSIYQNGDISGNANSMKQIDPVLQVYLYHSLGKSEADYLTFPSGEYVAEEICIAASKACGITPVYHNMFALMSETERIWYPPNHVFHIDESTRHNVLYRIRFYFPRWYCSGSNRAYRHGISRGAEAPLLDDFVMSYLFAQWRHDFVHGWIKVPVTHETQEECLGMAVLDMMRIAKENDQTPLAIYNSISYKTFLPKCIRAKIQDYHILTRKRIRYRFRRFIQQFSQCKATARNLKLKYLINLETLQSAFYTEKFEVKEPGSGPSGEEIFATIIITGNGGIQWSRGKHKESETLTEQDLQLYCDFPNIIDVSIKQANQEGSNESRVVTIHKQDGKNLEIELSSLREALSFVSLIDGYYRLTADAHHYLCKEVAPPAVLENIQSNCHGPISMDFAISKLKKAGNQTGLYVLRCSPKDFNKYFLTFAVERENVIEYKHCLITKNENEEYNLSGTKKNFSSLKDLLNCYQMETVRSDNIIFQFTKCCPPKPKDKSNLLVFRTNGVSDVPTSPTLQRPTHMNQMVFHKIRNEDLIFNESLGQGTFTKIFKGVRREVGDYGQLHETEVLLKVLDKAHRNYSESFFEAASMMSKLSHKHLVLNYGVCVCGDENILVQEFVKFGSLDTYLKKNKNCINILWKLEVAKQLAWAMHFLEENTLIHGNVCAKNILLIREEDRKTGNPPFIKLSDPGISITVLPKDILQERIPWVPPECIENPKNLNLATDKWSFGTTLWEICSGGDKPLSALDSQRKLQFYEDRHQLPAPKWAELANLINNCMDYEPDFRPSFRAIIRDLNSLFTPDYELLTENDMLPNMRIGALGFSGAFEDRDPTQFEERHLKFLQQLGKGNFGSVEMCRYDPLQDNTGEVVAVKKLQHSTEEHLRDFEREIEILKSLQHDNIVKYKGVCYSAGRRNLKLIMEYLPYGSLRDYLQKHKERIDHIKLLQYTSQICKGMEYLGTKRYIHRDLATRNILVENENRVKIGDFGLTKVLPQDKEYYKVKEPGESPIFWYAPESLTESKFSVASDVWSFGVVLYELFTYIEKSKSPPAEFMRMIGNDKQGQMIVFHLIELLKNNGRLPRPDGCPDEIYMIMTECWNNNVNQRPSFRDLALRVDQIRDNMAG
Experiment summary: phosphorylation enrichment, bacterial display (enrichment ratio); higher = better substrate or ligand; peptides without Tyr show the background
phosphorylation enrichment by entry:
Respond with the number and no other words.

Here's what some known entries look like.
[[record]]
sequence_string = "CTTIHYNYMCI [TP53_Y234_N239I]"
system = "Jak2 (UniProt O60674)"
readout_name = "phosphorylation enrichment"
readout_number = 0.859

[[record]]
sequence_string = "GMTLSYLFREP [NDUFS8_Y74]"
system = "Jak2 (UniProt O60674)"
readout_name = "phosphorylation enrichment"
readout_number = 0.848


Challenge: # return phosphorylation enrichment of LIYTNYEVGKD [GSTP1_Y112_A114V] (system: Jak2 (UniProt O60674))
Response given: 1.33

Challenge: # return phosphorylation enrichment of GIVEDYRPPVF [ACVRL1_Y421_F425V_YF] (system: Jak2 (UniProt O60674))
Response given: 0.625

Challenge: # return phosphorylation enrichment of PRAGVYPEKDQ [DNM2_Y626_L621P] (system: Jak2 (UniProt O60674))
Response given: 1.08

Challenge: # return phosphorylation enrichment of FIPSNYVAEDR [FRK_Y104_YF] (system: Jak2 (UniProt O60674))
Response given: 0.564

Challenge: # return phosphorylation enrichment of IHADIYRWFNI [MARS1_Y344] (system: Jak2 (UniProt O60674))
Response given: 1.12

Challenge: # return phosphorylation enrichment of KIEGVYARDET [RPL35A_Y34] (system: Jak2 (UniProt O60674))
Response given: 0.681

====

System: Grb2 SH2 (UniProt P62993)
Sequence (P62993 whole entry, looked up): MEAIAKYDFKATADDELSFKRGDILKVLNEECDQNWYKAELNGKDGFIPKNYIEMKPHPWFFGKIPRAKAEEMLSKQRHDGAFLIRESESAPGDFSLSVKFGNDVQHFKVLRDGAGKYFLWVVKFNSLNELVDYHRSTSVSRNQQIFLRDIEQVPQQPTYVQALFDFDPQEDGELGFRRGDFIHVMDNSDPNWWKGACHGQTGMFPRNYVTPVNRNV
Experiment summary: SH2 binding enrichment of the phosphorylated peptide, bacterial display (enrichment ratio); higher = better substrate or ligand; peptides without Tyr show the background
Response key: Yes means SH2 binding enrichment >= 1; No means SH2 binding enrichment < 1.

Here's what some known entries look like.
[[record]]
sequence_string = "FLAVGYHKPFI [IDS_Y225_H229Y_YF]"
system = "Grb2 SH2 (UniProt P62993)"
class_name = "Yes"

[[record]]
sequence_string = "PRLMLYNPTTF [EGFR_Y270_P266R_YF]"
system = "Grb2 SH2 (UniProt P62993)"
class_name = "No"

[[record]]
sequence_string = "ANNEFYFRVCA"
system = "Grb2 SH2 (UniProt P62993)"
class_name = "No"

[[record]]
sequence_string = "ECKLLYSQKEG [PTPN11_Y263_R265Q]"
system = "Grb2 SH2 (UniProt P62993)"
class_name = "No"

[[record]]
sequence_string = "AKRKGYDMQVD [NEB_Y2770_R2773Q]"
system = "Grb2 SH2 (UniProt P62993)"
class_name = "No"


Proceed to the following item.
Challenge: Determine whether measured SH2 binding enrichment meets or exceeds 1 for LLGFLYFFVCS [SLC34A2_Y109]
Response given: Yes
